test: Molar extinction coefficient of i-line (365 nm), UV-visible absorbance in acetonitrile; assay type: physicochemical; details: 0.25 mmol/L in acetonitrile, cell length 1 cm
Just a reminder that ties go to N: only Molar extinction coefficient strictly below 6000 L/mol/cm counts as Y.

# molecule, class_assignment
records = [
    ("c1ccc(Sc2ccc([S+](c3ccccc3)c3ccccc3)cc2)cc1 [A′-2, reference compound]", "Y"),
    ("C[Si](C)(C)c1ccc2c3c(cccc13)C(=O)N(OS(=O)(=O)c1c(F)c(F)c(F)c(F)c1F)C2=O [Example A-38]", "Y"),
    ("CC(C)(C)c1cc2c3c(cc(C(C)(C)C)cc3c1)C(=O)N(OS(=O)(=O)C(F)(F)F)C2=O [Example A-13]", "N"),
    ("O=C1c2cccc3c(Sc4ccccc4)ccc(c23)C(=O)N1OS(=O)(=O)c1c(F)c(F)c(F)c(F)c1F [Example A-27]", "N"),
    ("C[Si](C)(C)c1ccc2c3c(cccc13)C(=O)N(OS(=O)(=O)C(F)(F)F)C2=O [Example A-18]", "Y"),
    ("O=C1c2cccc3c(Oc4c(F)c(F)c(F)c(F)c4F)ccc(c23)C(=O)N1OS(=O)(=O)C(F)(F)F [Example A-5]", "N"),
]

====

test: Solvent solubility (butyl acetate, toluene or PGMEA); format: physicochemical; conditions: PGMEA, 25° C.
Recorded measurements of Solvent solubility PGMEA, one per entry

# compound, censoring_qualifier, Solvent solubility PGMEA [wt %]
data = [
    ("CCCOc1ccc2c3c(cccc13)C(=O)N(OS(=O)(=O)C(F)(F)F)C2=O", "=", 4),
    ("CC1(C)C2CCC1(CS(=O)(=O)ON1C(=O)c3cccc4c(Cl)ccc(c34)C1=O)C(=O)C2 (centres unmarked)", "=", 1.5),
    ("CC1(C)C2CCC1(CS(=O)(=O)ON1C(=O)c3cccc4c(Br)ccc(c34)C1=O)C(=O)C2 (centres unmarked)", "=", 1.5),
    ("O=C1c2cccc3c(Br)ccc(c23)C(=O)N1OS(=O)(=O)C(F)(F)F", "=", 4),
    ("CC1(C)[C@@H]2CC[C@@]1(CS(=O)(=O)ON1C(=O)c3cccc4c([Si](C)(C)C)ccc(c34)C1=O)C(=O)C2", "=", 2.5),
    ("c1ccc(Sc2ccc([S+](c3ccccc3)c3ccccc3)cc2)cc1 [A′-2, reference compound]", ">", 30),
    ("O=C(Cc1ccccc1)c1ccc2c3c(cccc13)C(=O)N(OS(=O)(=O)c1c(F)c(F)c(F)c(F)c1F)C2=O", "=", 3.2),
    ("CCCOc1ccc2c3c(cccc13)C(=O)N(OS(=O)(=O)c1c(F)c(F)c(F)c(F)c1F)C2=O", "=", 3),
    ("CC(C)(C)Cc1cc2c3c(cc(CC(C)(C)C)cc3c1)C(=O)N(OS(=O)(=O)CC13CCC(CC1=O)C3(C)C)C2=O (centres unmarked)", "=", 3.5),
    ("CCCCC(CC)C(=O)Oc1cc2c3c(cccc3c1)C(=O)N(OS(=O)(=O)c1c(F)c(F)c(F)c(F)c1F)C2=O (centres unmarked)", "=", 18),
    ("O=C1c2cccc3c(Cl)ccc(c23)C(=O)N1OS(=O)(=O)c1c(F)c(F)c(F)c(F)c1F", "=", 3.5),
    ("COc1cc2c3c(cccc3c1)C(=O)N(OS(=O)(=O)C(F)(F)F)C2=O", "=", 6),
    ("CC(C)(C)c1cc2c3c(cc(C(C)(C)C)cc3c1)C(=O)N(OS(=O)(=O)C(F)(F)F)C2=O", "=", 8),
    ("O=C1c2cccc3c(Cl)ccc(c23)C(=O)N1OS(=O)(=O)C(F)(F)F", "=", 6),
    ("CC1(C)C2CCC1(CS(=O)(=O)ON1C(=O)c3cccc4c(C(=O)Cc5ccccc5)ccc(c34)C1=O)C(=O)C2 (centres unmarked)", "=", 1.8),
    ("O=C1c2cccc3c(OCC(F)(F)C(F)F)ccc(c23)C(=O)N1OS(=O)(=O)c1c(F)c(F)c(F)c(F)c1F", "=", 7),
    ("CC1(C)C2CCC1(CS(=O)(=O)ON1C(=O)c3cccc4c(OCC(F)(F)C(F)F)ccc(c34)C1=O)C(=O)C2 (centres unmarked)", "=", 3),
    ("O=C1c2cccc3c(Oc4cccc(C(F)(F)F)c4)ccc(c23)C(=O)N1OS(=O)(=O)c1c(F)c(F)c(F)c(F)c1F", "=", 9),
    ("CC1(C)C2CCC1(CS(=O)(=O)ON1C(=O)c3cccc4c(C(F)(F)C(F)(F)C(F)(F)C(F)(F)F)ccc(c34)C1=O)C(=O)C2 (centres unmarked)", "=", 5),
    ("CC(C)(C)Cc1cc2c3c(cc(CC(C)(C)C)cc3c1)C(=O)N(OS(=O)(=O)c1c(F)c(F)c(F)c(F)c1F)C2=O", "=", 11),
    ("O=C1c2cccc3c(C(F)(F)C(F)(F)C(F)(F)C(F)(F)C(F)(F)C(F)(F)C(F)(F)C(F)(F)F)ccc(c23)C(=O)N1OS(=O)(=O)c1c(F)c(F)c(F)c(F)c1F", "=", 23),
    ("CCCC(=O)Oc1cc2c3c(cccc3c1)C(=O)N(OS(=O)(=O)c1c(F)c(F)c(F)c(F)c1F)C2=O", "=", 14),
    ("O=C1c2cccc3c(Oc4c(F)c(F)c(F)c(F)c4F)ccc(c23)C(=O)N1OS(=O)(=O)C(F)(F)F", "=", 14),
]
